// provenance: the CombiSolv-Exp solvation set (Vermeire and Green 2021)

test: solvent given as SMILES; conditions: in ClC(Cl)(Cl)Cl
Entries annotated with measured solvation free energy, 298 K
Please answer using a numeric value trailed by its unit.

q: # return recorded solvation free energy, 298 K for entry CNC
a: -2.88 kcal/mol

q: # return recorded solvation free energy, 298 K for entry Brc1ccccc1
a: -6.23 kcal/mol

q: # return recorded solvation free energy, 298 K for entry CC(C)(C)Cl
a: -3.66 kcal/mol

q: # return recorded solvation free energy, 298 K for entry C1CCCC1
a: -3.78 kcal/mol

----------
assay: solvent given as SMILES; settings: in Brc1cccc2ccccc12
Entries annotated with measured solvation free energy, 298 K
Report only the number, with the unit kcal/mol understood.

| Given Smiles | Result Type | Measurement |
| --- | --- | --- |
| C1CCCCC1 | solvation free energy, 298 K | -3.66 |
| ClC(Cl)(Cl)Cl | solvation free energy, 298 K | -3.92 |
| CC(C)(C)Cl | solvation free energy, 298 K | -3.15 |
| c1ccccc1 | solvation free energy, 298 K | -4.1 |
| ClCCCl | solvation free energy, 298 K | -4.18 |
| CCBr | solvation free energy, 298 K | -3.23 |

Continue with the next compound.
q: # return recorded solvation free energy, 298 K for entry CC(C)OC(C)C
a: -3.49
